Numbers sourced from patent US9249147B2.

- Procedure text: Pharmacokinetics study in CD-1 mice (IV, PO)
- Type: in vivo
- Condition: CD-1, mouse, plasma, po, 5 mg/kg, PO 5 mg/kg, time point 0.083, Mean
- Description: A comprehensive PK study was run in CD-1 strain of mice with IV (1 mg/kg) and PO (5 mg/kg) routes of drug delivery and analytical data collection at 10 time points over 24 hours (Medicilon, Study CRL0703). Blood samples were collected by removing the eyeballs at pre-dose and 0.083, 0.25, 0.5, 1, 2, 4, 6, 8, and 24 hours post-dose. The plasma samples and the dose formulation were stored at −20° C. until bioanalysis.
Property label: concentration at […] (ng/mL)
# value in ng/mL; strip the unit string

Entry under test: Cc1ccc(F)cc1C[C@H](C)Nc1cc[nH]c(=O)c1-c1nc2cc3c(cc2[nH]1)C(=O)N(CCN1CCCC1)C3 . Its concentration at […] was 1.24

* * *

- Procedure text: Pharmacokinetics study in CD-1 mice (IV, PO)
- Format: in vivo
- Condition: CD-1, mouse, plasma, po, 5 mg/kg, PO 5 mg/kg, time point 2, Mean
Property label: concentration at 2 h (ng/mL)
Output spec: scalar in ng/mL, unitless text.

# molecule Cc1ccc(F)cc1C[C@H](C)Nc1cc[nH]c(=O)c1-c1nc2cc3c(cc2[nH]1)C(=O)N(CCN1CCCC1)C3 ; its concentration at 2 h = 1.01

* * *

Measured pIC50, listed per entry.
- Test system: Karpas299
- Procedure text: Cell proliferation inhibition, ALCL line Karpas299
- Type: cell-based
- Condition: Homo sapiens, KARPAS-299; Table 2, cell line; read-out: IC50 ALCL (ALK) Karpas299
pIC50: −log10 of the molar value.

Answered cases to consult:
{"Compound": "Cc1ccc(F)cc1C[C@H](C)Nc1cc[nH]c(=O)c1-c1nc2cc3c(cc2[nH]1)CN(CCN1CCC[C@H]1C)C3=O [drawing 354]", "Property label": "pIC50", "Measured": "7.00 to 8.00"}
{"Compound": "C[C@@H](Cc1c(F)c(F)cc(F)c1F)Nc1cc[nH]c(=O)c1-c1nc2cc3c(cc2[nH]1)CN(CCN1CCCC1)C3=O [drawing 352]", "Property label": "pIC50", "Measured": "> 8.00"}

Attention now turns to another entry.
Given item Cc1ccc(F)cc1C[C@H](C)Nc1cc[nH]c(=O)c1-c1nc2cc3c(cc2[nH]1)CN(CCN(C)C)C3=O [drawing 357] , the value recorded as its pIC50 is 7.00 to 8.00

* * *

- Procedure text: Pharmacokinetics study in CD-1 mice (IV, PO)
- Format: in vivo
- Condition: CD-1, mouse, plasma, iv, 1 mg/kg, IV 1 mg/kg, time point 6, Mean
Property label: concentration at 6 h (ng/mL)
Numeric answer only, unit ng/mL assumed.

Briefly, concentration at 6 h measured for Cc1ccc(F)cc1C[C@H](C)Nc1cc[nH]c(=O)c1-c1nc2cc3c(cc2[nH]1)C(=O)N(CCN1CCCC1)C3 [compound (II)] : 2.18

* * *

- Target of assay: hERG (Homo sapiens)
- Sequence (Q12809 whole entry): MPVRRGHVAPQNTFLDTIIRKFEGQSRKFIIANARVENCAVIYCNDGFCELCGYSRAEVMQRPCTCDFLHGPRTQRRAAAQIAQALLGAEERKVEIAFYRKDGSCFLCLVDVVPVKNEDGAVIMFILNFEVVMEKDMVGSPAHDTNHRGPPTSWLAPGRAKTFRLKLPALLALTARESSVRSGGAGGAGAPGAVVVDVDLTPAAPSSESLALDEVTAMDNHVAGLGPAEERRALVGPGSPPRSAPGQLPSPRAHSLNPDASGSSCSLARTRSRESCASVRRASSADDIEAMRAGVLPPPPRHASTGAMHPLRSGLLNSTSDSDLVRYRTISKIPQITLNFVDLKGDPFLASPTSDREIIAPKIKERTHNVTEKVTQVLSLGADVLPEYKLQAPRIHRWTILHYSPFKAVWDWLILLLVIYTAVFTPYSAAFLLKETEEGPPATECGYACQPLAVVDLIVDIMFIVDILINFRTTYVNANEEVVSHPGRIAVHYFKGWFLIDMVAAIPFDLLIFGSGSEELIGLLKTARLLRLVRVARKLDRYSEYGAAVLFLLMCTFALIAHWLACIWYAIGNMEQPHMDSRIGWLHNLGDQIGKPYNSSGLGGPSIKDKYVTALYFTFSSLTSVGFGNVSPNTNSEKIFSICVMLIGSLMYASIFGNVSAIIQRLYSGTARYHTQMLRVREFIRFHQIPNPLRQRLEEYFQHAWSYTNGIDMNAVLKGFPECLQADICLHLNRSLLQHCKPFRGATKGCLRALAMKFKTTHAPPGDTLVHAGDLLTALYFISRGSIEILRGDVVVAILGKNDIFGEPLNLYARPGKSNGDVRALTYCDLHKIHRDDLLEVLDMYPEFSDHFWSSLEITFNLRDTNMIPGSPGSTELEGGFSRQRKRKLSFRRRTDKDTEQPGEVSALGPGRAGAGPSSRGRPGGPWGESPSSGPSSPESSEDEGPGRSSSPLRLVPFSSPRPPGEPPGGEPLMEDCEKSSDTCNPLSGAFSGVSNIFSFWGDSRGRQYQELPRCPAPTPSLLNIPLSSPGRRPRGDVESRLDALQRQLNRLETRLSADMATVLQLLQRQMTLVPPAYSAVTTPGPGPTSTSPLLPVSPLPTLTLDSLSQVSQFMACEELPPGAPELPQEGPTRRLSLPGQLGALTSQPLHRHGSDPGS
- Procedure text: hERG Inhibition (Table 6E)
- Assay type: cell-based
- Design: expressed in transfected cells; unit not given here
- Condition: 100
Measured hERG Inhibition by item
Returns: the value as a bare number; no unit string appended.

Would you please look over these solved cases?
{"Compound": "Cc1ccc(F)cc1C[C@H](C)Nc1cc[nH]c(=O)c1-c1nc2cc3c(cc2[nH]1)CN(CCN(C)C)C3=O [drawing 365]", "hERG Inhibition": 8.8}
{"Compound": "Cc1ccc(F)cc1C[C@H](C)Nc1cc[nH]c(=O)c1-c1nc2cc3c(cc2[nH]1)C(=O)N(CCN1CCCC1)C3 [drawing 364]", "hERG Inhibition": 28}
{"Compound": "C[C@@H](Cc1cc(F)cc(F)c1F)Nc1cc[nH]c(=O)c1-c1nc2cc3c(cc2[nH]1)CN(CCN(C)C)C3=O [drawing 367]", "hERG Inhibition": 10.20}

Let us move to another entry and its hERG Inhibition.
Kindly note the recorded hERG Inhibition for C[C@@H](Cc1cc(F)cc(F)c1F)Nc1cc[nH]c(=O)c1-c1nc2cc3c(cc2[nH]1)CN(CCN1CCCC1)C3=O [drawing 366] , which is 9.7

* * *

- Target of assay: IRK (Homo sapiens, UniProt P06213)
- Construct: 6×His- or GST-tagged kinase domain fragments of the corresponding RTKs expressed in baculovirus system; host or cells: baculovirus system
- Sequence (P06213 1023-1298 limits assumed): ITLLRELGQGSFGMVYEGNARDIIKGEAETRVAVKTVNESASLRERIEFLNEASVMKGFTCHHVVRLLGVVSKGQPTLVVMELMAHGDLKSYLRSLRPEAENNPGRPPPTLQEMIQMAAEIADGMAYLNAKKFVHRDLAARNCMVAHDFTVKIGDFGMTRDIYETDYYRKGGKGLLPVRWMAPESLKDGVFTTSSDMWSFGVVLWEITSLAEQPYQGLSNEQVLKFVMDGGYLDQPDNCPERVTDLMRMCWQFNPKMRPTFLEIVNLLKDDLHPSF
- Procedure text: IRK (insulin receptor kinase) assay
- Type: biochemical
- Condition: Table 1; read-out: IRK IC50
IC50 values, listed per item

{"Molecule": "Cc1ccc(F)cc1C[C@H](C)Nc1cc[nH]c(=O)c1-c1nc2cc3c(cc2[nH]1)C(=O)N(CCN1CCCC1)C3 [drawing 303]", "Target of assay": "IRK (Homo sapiens, UniProt P06213)", "IC50": "100 to 250 nM"}
{"Molecule": "COc1ccc(F)cc1C[C@H](C)Nc1cc[nH]c(=O)c1-c1nc2cc3c(cc2[nH]1)CN(CCN1CCOCC1)C3=O", "Target of assay": "IRK (Homo sapiens, UniProt P06213)", "IC50": "> 1000 nM"}

Entry Cc1ccc(F)cc1C[C@H](C)Nc1cc[nH]c(=O)c1-c1nc2cc3c(cc2[nH]1)CNC3=O , tested on IRK (Homo sapiens, UniProt P06213), has a reported IC50 of > 1000 nM

Short answer on IRK (Homo sapiens, UniProt P06213) for C[C@@H](Cc1ccccc1Cl)Nc1cc[nH]c(=O)c1-c1nc2cc3c(cc2[nH]1)CN(CCN1CCCC1)C3=O , IC50: 100 to 250 nM

* * *

- Procedure text: Pharmacokinetics study in CD-1 mice (IV, PO)
- Format: in vivo
- Condition: CD-1, mouse, plasma, iv, 1 mg/kg, IV 1 mg/kg, individual animals A-D
Property label: Tmax (min)
Respond with the bare value in min.

Lab note: measured Tmax of Cc1ccc(F)cc1C[C@H](C)Nc1cc[nH]c(=O)c1-c1nc2cc3c(cc2[nH]1)C(=O)N(CCN1CCCC1)C3 was 4.98

* * *

- Target of assay: UniProt Q9UM73
- Sequence (Q9UM73 with tags, fused parts or gaps): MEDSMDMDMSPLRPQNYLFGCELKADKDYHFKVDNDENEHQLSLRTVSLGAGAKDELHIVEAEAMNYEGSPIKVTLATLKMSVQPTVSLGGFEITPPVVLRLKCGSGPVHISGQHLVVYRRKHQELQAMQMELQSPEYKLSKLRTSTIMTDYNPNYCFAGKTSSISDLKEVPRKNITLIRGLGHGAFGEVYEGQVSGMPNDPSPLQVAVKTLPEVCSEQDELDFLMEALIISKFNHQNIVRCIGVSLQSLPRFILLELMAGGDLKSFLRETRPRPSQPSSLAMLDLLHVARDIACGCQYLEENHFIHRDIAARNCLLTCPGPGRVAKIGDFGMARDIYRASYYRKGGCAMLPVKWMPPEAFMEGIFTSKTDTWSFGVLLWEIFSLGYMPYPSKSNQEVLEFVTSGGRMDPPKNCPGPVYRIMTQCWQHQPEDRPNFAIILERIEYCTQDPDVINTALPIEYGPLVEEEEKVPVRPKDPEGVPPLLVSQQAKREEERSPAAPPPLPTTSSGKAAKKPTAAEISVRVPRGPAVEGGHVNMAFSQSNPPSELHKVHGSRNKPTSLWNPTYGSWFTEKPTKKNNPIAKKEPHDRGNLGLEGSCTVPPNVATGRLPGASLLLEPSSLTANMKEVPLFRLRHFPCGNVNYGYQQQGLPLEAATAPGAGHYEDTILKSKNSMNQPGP
- Procedure text: ALK kinase assay (Kinase-Glo / AlphaScreen, purified NPM-ALK);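 also: recombinant baculovirus-expressed ALK kinase domain, activity read either as leftover ATP by Kinase-Glo luminescence or as poly(Glu-Tyr) phosphorylation by anti-phosphotyrosine AlphaScreen proximity signal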
- Type: biochemical
- Design: fused to the complete intracytoplasmic portion of ALK containing the functional tyrosine kinase domain; 6xHis; made in house; host or cells: insect cells; the other entry of the earlier key: NPM1 (P06748, Nucleophosmin)
- Condition: Table 1; read-out: ALK IC50
pIC50: −log10 of the molar value.
Property label: pIC50

{"Compound": "CN1CCC(N2C(=O)c3cc4nc(-c5c(N[C@@H](CO)Cc6ccccc6)cc[nH]c5=O)[nH]c4cc3C2=O)CC1", "Measured": "6.60 to 7.00"}
{"Compound": "C[C@@H](Cc1ccccc1F)Nc1cc[nH]c(=O)c1-c1nc2cc3c(cc2[nH]1)CN(CCN1CCCC1)C3=O", "Measured": "6.60 to 7.00"}
{"Compound": "CC(Cc1cccs1)Nc1cc[nH]c(=O)c1-c1nc2cc3c(cc2[nH]1)C(=O)N(CCCN1CCCC1)C3=O (stereo not shown)", "Measured": "6.60 to 7.00"}
{"Compound": "Cc1ccc(F)cc1C[C@H](C)Nc1cc[nH]c(=O)c1-c1nc2cc3c(cc2[nH]1)CN(CCN(C)C)C3=O [drawing 316]", "Measured": "> 8.00"}
{"Compound": "CC(Cc1ccc(-c2ccccc2)s1)Nc1cc[nH]c(=O)c1-c1nc2cc3c(cc2[nH]1)C(=O)N(CCCN1CCCC1)C3 (stereo not shown)", "Measured": "< 6.00"}

The compound identified as C[C@H](Cc1cccs1)Nc1cc[nH]c(=O)c1-c1nc2cc3c(cc2[nH]1)C(=O)N(CCCN1CCCC1)C3=O registered its pIC50 at < 6.00

Sample CN1CCC(N2C(=O)c3cc4nc(-c5c(N[C@H](CO)Cc6ccccc6)cc[nH]c5=O)[nH]c4cc3C2=O)CC1 ; pIC50 observed: < 6.00

* * *

- Procedure text: Caco-2 (TC7) A-B Permeability test (pH 6.5/7.4)
- Condition: human, Caco-2, pH 6.5, Permeability 1st, A-B Permeability (TC7, pH 6.5/7.4), test concentration 1.0E−05 M, 1st replicate
# Papp A→B at 10 µM annotations
Just so you know, I need the unit written after the number.

As a guide, the following entries are already answered.
{"Compound": "CC(CCc1ccccc1)NCC(O)c1ccc(O)c(C(N)=O)c1 (stereo not shown)", "Papp A→B at 10 µM": "5.8 ×10⁻⁶ cm/s"}
{"Compound": "Cc1ccc(F)cc1C[C@H](C)Nc1cc[nH]c(=O)c1-c1nc2cc3c(cc2[nH]1)C(=O)N(CCN1CCCC1)C3", "Papp A→B at 10 µM": "0.41 ×10⁻⁶ cm/s"}

Lab note: COc1cc2c(c(OC)c1OC)-c1ccc(OC)c(=O)cc1[C@@H](NC(C)=O)CC2 gave Papp A→B at 10 µM of 0.9 ×10⁻⁶ cm/s

For reference, reported Papp A→B at 10 µM for CNC(=C[N+](=O)[O-])NCCSCc1ccc(CN(C)C)o1 stands at 0.58 ×10⁻⁶ cm/s
